Provenance of the data: paper PMC10527105

pKi: −log10 of the molar value.
Parameter 'readout' = pKi; parameter 'system' = human NET (Homo sapiens, UniProt P23975).
Sequence (P23975 whole entry): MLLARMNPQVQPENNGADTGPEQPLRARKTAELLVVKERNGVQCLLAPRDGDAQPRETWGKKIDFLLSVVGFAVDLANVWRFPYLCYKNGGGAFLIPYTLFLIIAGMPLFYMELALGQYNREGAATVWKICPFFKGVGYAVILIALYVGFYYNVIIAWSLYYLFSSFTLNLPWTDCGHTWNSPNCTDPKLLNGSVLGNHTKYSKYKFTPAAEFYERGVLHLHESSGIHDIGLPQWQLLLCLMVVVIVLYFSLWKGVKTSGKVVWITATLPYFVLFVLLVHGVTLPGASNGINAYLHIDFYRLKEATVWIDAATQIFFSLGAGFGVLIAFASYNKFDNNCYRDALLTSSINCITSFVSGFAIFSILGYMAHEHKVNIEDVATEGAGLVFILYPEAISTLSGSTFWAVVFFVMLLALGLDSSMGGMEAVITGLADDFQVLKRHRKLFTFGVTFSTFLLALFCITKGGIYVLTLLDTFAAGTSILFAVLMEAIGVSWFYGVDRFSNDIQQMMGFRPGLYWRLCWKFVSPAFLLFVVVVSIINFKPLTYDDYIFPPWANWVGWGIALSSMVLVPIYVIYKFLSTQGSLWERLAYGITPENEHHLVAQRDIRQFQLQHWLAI

smilesStructure: [O-][S@@+](Cc1cccs1)[C@@H](c1ccccc1)c1cccc(Br)c1
targetOrSystem: human NET (Homo sapiens, UniProt P23975)
pKi: < 5.00

Q: // fetch pKi; item: [O-][S@+](Cc1cccs1)[C@H](c1ccccc1)c1cccc(Br)c1 ; system: human NET (Homo sapiens, UniProt P23975)
A: < 5.00

---

# IC50 listing for each entry below
Molecular target: human dopamine transporter/SLC6A3 (DAT) (Homo sapiens, UniProt Q01959)
Construct: expressed in transfected cells; host or cells: HEK293
Sequence (Q01959 whole entry): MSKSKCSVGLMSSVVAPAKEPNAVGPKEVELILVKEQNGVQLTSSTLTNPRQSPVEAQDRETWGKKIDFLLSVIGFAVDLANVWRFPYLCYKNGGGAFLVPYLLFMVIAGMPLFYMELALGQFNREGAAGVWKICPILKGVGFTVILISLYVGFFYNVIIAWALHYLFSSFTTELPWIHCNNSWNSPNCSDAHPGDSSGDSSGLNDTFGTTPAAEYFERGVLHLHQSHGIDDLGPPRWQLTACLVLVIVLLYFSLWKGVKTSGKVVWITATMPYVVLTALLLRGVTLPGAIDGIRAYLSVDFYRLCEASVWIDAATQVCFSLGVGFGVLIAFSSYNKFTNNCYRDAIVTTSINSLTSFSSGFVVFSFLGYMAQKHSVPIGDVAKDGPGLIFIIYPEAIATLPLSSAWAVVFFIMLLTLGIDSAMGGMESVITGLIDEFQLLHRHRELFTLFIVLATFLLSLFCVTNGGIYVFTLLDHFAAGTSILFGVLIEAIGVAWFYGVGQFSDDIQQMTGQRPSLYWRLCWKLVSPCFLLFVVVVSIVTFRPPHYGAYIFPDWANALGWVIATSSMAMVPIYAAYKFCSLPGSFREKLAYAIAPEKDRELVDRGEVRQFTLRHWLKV
Experiment: Cellular uptake experiments: [3H]-dopamine reuptake inhibition in transporter-expressing HEK293 cells
Format: cell-based
Conditions: Reuptake Inhibition (IC50 ± SE, µM) DAT, cells stably expressing DAT; [3H]-dopamine 1 µM; screening cut-off 50 µM
Expressed in µM, but write only the number.

// solved cases for IC50 follow
compound: COc1ccccc1[C@@H](c1ccccc1)[S@+]([O-])Cc1cccs1
endpointUnit: µM
IC50: 31
//
compound: [O-][S+](Cc1cccs1)C(c1ccccc1)c1cccc(C(F)(F)F)c1 (stereo not shown) [Compound 5p]
endpointUnit: µM
IC50: 5
//
compound: [O-][S+](Cc1cccs1)C(c1ccccc1)c1cccc(C(F)(F)F)c1 (stereo not shown) [Compound 8p]
endpointUnit: µM
IC50: 6.2

Q: Dear colleague, please send me the reported IC50 for [O-][S+](Cc1cccs1)C(c1ccc(F)cc1)c1ccc(Cl)cc1 (stereo not shown) [Compound 6u] when you can.
A: 12

Q: Read the entry COc1cccc(C(c2ccccc2)[S+]([O-])Cc2cccs2)c1 (stereo not shown) [Compound 7s] and write its reported IC50.
A: 1.56

Q: Note IC50 for the compound shown: [O-][S@+](Cc1cccs1)[C@H](c1ccccc1)c1ccc(Cl)cc1
A: 4.9

Q: Specify measured IC50 for Cc1cccc([C@@H](c2ccccc2)[S@+]([O-])Cc2cccs2)c1 .
A: 1.56
